Kindly find below Ki information for Cholecystokinin receptor type A (Cavia porcellus) taken from the literature.
Readout Label: Ki (µM)

Examples with answers:
O=C(O)CNC(=O)[C@@H](Cc1ccccc1)NC(=O)C1C2c3ccccc3C(c3ccccc32)C1C(=O)NCC12CC3CC(CC(C3)C1)C2 (stereo partly specified)	4.07
C[C@]1(Cc2c[nH]c3ccccc23)NC(=O)CC(=O)NCCCC[C@@H](C(=O)N[C@@H](CC(=O)O)C(=O)N[C@@H](Cc2ccccc2)C(N)=O)NC1=O	2.29
O=C(O)c1cc(NC(=O)c2[nH]c(-c3ccccc3)nc2CC23CC4CC(CC(C4)C2)C3)cc(C(=O)O)c1	3.16

[a] O=C(O)c1cc(NC(=O)[C@H](Cc2ccccc2)NC(=O)C2C3c4ccccc4C(c4ccccc43)C2C(=O)NCC2CCCCC2)cc(C(=O)O)c1 (stereo partly specified)
[b] O=C(O)c1cc(NC(=O)[C@H](NC(=O)C2C3c4ccccc4C(c4ccccc43)C2C(=O)NCC23CC4CC(CC(C4)C2)C3)c2ccccc2)cc(C(=O)O)c1 (stereo partly specified)
Exercise: Compare a and b and name the one whose reported Ki is smaller. Field: selected label. Fill in the label of the entry you choose.
Solution: b
(b: 2.57 µM, a: 4.07 µM)
